All figures here come from paper PMC7248907.

Attribute: Ki
TARGET_DESC: cathepsin L (Homo sapiens, UniProt P07711)
Sequence (P07711 114-333): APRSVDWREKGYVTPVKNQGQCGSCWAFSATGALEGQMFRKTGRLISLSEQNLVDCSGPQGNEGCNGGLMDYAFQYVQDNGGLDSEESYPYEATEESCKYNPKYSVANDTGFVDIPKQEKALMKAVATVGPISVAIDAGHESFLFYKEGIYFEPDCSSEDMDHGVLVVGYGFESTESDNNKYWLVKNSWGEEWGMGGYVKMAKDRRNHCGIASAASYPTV
TEST_NAME: Fluorometric cathepsin L inhibition assay (Cbz-Phe-Arg-AMC)
Format: biochemical
Parameters: purchased Calbiochem, Merck Millipore
EXPERIMENTAL_SETUP: approximate value; read-out: Ki of initial non-covalent complex, CathL

1. CC(C)C[C@H](NC(=O)[C@H](Cc1ccccc1)NC1=C(Cl)C(=O)c2ccccc2C1=O)C(=O)O
~400 nM

query: Fill in the recorded Ki for this compound, with cathepsin L (Homo sapiens, UniProt P07711) as test system: CC(C)C[C@H](NC(=O)[C@H](Cc1ccccc1)NC1=C(C#N)C(=O)c2ccccc2C1=O)C(=O)O
result: ~100 nM

###

Attribute: Ki
TARGET_DESC: cathepsin L (Homo sapiens, UniProt P07711)
TEST_NAME: Fluorometric cathepsin L inhibition assay (Cbz-Phe-Arg-AMC)
Format: biochemical
Set-up: purchased Calbiochem, Merck Millipore
EXPERIMENTAL_SETUP: initial complex; Dixon fit of vi vs [I]; read-out: Cath. L Ki Method 2
Give just the numeric value; nM need not be written.

Please review the entries below; each comes with its answer.
1) CC(C)C[C@H](NC(=O)[C@H](Cc1ccccc1)NC1=C(Cl)C(=O)c2ccccc2C1=O)C(=O)O [Compound 3]
345
2) CC(C)C[C@H](NC(=O)[C@H](Cc1ccccc1)NC1=C(C#N)C(=O)c2ccccc2C1=O)C(=O)OCc1ccccc1 [Compound 2]
300

For the next question, use this molecule.
query: Endpoint output: Ki of CC(C)C[C@H](NC(=O)[C@H](Cc1ccccc1)NC1=C(C#N)C(=O)c2ccccc2C1=O)C(=O)O [Compound 4] . Value?
result: 91

###

TARGET_DESC: rhodesain (Trypanosoma brucei rhodesiense)
Construct: made in house; host or cells: Pichia pastoris
Sequence (Q95PM0 entry or part of it): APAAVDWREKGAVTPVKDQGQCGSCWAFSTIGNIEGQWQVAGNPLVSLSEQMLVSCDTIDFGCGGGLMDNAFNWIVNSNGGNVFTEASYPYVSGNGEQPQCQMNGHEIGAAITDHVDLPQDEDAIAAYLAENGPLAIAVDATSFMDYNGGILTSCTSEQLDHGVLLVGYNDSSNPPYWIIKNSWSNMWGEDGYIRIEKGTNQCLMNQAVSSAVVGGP
TEST_NAME: biochemical
Type: biochemical
EXPERIMENTAL_SETUP: initial complex; Dixon fit of vi vs [I]; read-out: Rhod. Ki Method 2
Attribute: pKi
pKi field: float, defined as -log10 of concentration (mol/L).

1. CC(C)C[C@H](NC(=O)[C@H](Cc1ccccc1)NC1=C(Cl)C(=O)c2ccccc2C1=O)C(=O)O
7.20

For the next question, use this compound.
query: Fill in the recorded pKi for this compound, with rhodesain (Trypanosoma brucei rhodesiense) as test system: CC(C)C[C@H](NC(=O)[C@H](Cc1ccccc1)NC1=C(C#N)C(=O)c2ccccc2C1=O)C(=O)O
result: 9.49

###

Attribute: Ki
TARGET_DESC: cathepsin L (Homo sapiens, UniProt P07711)
TEST_NAME: Fluorometric cathepsin L inhibition assay (Cbz-Phe-Arg-AMC)
Type: biochemical
Design: purchased Calbiochem, Merck Millipore
EXPERIMENTAL_SETUP: final complex; Dixon fit of vS vs [I]; read-out: Cath. L Ki^* Method 2
Give just the numeric value; nM need not be written.

1. CC(C)C[C@H](NC(=O)[C@H](Cc1ccccc1)NC1=C(Cl)C(=O)c2ccccc2C1=O)C(=O)O
61
2. CC(C)C[C@H](NC(=O)[C@H](Cc1ccccc1)NC1=C(C#N)C(=O)c2ccccc2C1=O)C(=O)OCc1ccccc1
54

For the next question, use this compound.
query: Endpoint output: Ki of CC(C)C[C@H](NC(=O)[C@H](Cc1ccccc1)NC1=C(C#N)C(=O)c2ccccc2C1=O)C(=O)O . Value?
result: 15
